molecular target: human renin (Homo sapiens, UniProt P00797); construct: A human plasma pool is used as the source of both the substrate (angiotensinogen) and the enzyme (renin); assay: Plasma renin assay (inhibition of human renin, angiotensin I by RIA); details: human plasma pool, pH 6.0, 2 h incubation at 37°
Sequence (P00797 67-406): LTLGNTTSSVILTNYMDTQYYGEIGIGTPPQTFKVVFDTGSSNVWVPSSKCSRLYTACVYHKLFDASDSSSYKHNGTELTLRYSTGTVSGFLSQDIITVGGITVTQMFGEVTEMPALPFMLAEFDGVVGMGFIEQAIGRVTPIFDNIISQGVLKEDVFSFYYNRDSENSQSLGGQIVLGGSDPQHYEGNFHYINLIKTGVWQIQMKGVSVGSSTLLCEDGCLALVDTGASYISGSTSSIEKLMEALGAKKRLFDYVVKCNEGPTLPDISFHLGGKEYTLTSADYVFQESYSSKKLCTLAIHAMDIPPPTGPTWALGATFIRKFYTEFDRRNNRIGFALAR
measured_metric: IC50 (nM)
Kindly answer with a numeric value in nM, unit omitted.

Example results:
CC(C)C[C@H](O)[C@H](O)[C@H](CC1CCCCC1)NC(=O)[C@@H](CC(=O)N(CC(=O)N(C)C)Cc1ccccn1)Cc1csc(N)n1 | 10
CC(C)C[C@H](O)[C@H](O)[C@H](CC1CCCCC1)NC(=O)[C@@H](CC(=O)N(CC(=O)N1CCOCC1)CC1CCCC1)Cc1csc(N)n1 | 2

Problem: Which IC50 is reported for this compound? "CC(C)C[C@H](O)[C@H](O)[C@H](CC1CCCCC1)NC(=O)[C@@H](CC(=O)N(CC(=O)N(C)CCN(C)C(=O)N1CCOCC1)CC1CCCCC1)Cc1csc(N)n1"
Solution: 0.35

Problem: Query (compound): "CC(C)C[C@H](O)[C@H](O)[C@H](CC1CCCCC1)NC(=O)[C@@H](CC(=O)N(CC(=O)N(C)C)CC1CCCCC1)Cc1cscn1" ; field requested: IC50
Solution: 1.5

Problem: Could you tell me which IC50 is on file for "CC(C)C[C@H](O)[C@H](O)[C@H](CC1CCCCC1)NC(=O)[C@@H](CC(=O)N(CC(=O)N(C)CCc1cccnc1)CC1CCCCC1)Cc1csc(N)n1" ?
Solution: 0.4

Problem: GET /values?readout=IC50&item= "CN(CCc1ccccn1)C(=O)CN(CC1CCCCC1)C(=O)C[C@@H](Cc1csc(N)n1)C(=O)N[C@@H](CC1CCCCC1)[C@@H](O)CSc1nnnn1C"
Solution: 45

Problem: Request the reported IC50 associated with "CC(C)C[C@H](O)[C@H](O)[C@H](CC1CCCCC1)NC(=O)[C@@H](CC(=O)N(CCc1ccccn1)CC(=O)N(C)C)CC1CC1"
Solution: 145

Problem: Fill in the blank: the reported IC50 of "CON(C)C(=O)CN(Cc1ccccc1)C(=O)C[C@@H](CC1CC1)C(=O)N[C@@H](CC1CCCCC1)[C@@H](O)[C@@H](O)CC(C)C" is ____.
Solution: 66

Problem: Any idea what its IC50 is? The compound is "CC(C)C[C@H](O)[C@H](O)[C@H](CC1CCCCC1)NC(=O)[C@@H](CC(=O)N(CC(=O)N(C)C)[C@@H](C)c1ccccc1)Cc1csc(N)n1"
Solution: 1.3

Problem: I'd like to know its IC50. The compound in question is "CC(C)C[C@H](O)[C@H](O)[C@H](CC1CCCCC1)NC(=O)[C@@H](CC(=O)N(CC(=O)N(C)CCc1ccccn1)[C@@H](C)c1ccccc1)Cc1csc(N)n1"
Solution: 1

Problem: Param item = "CC(C)C[C@H](O)[C@H](O)[C@H](CC1CCCCC1)NC(=O)[C@@H](CC(=O)N(CC(N)=O)Cc1ccccc1)CC1CC1" ; retrieve measured IC50.
Solution: 395

Problem: State the recorded IC50 for this entry: "CC(C)C[C@H](O)[C@H](O)[C@H](CC1CCCCC1)NC(=O)[C@@H](CC(=O)N(CC(=O)N(C)C)CC1CCCC1)Cc1csc(N)n1"
Solution: 1
